FYI, the data here is from patent US20120083522A1.

In this section, each of the substances is paired with its reported percent inhibition of Factor XI mRNA, relative to untreated control cells.
Test system: human Factor XI mRNA
Test: Dose-dependent inhibition in HepG2 cells, lipofectin (Example 4)
Format: cell-based
Details: 75 nM, 16 hours
In the oligonucleotide strings, read from the 5' end, every base follows the letter of its sugar. An asterisk marks phosphorothioate; unmarked linkages are phosphodiester. Other units and linkages are bracketed, terminal groups are in braces. A string of capitals states the bases alone. e = 2'-O-(2-methoxyethyl) (MOE); [5mC] = 5-methylcytosine; d = 2'-deoxy (DNA)
Kindly answer with a numeric value in %, unit omitted.

Here's what some known entries look like.
- SUBSTANCE: "416945 (antisense eA*eA*dT*dG*dT*d[5mC]*dT*dT*dT*dG*dT*dT*dG*d[5mC]*dA*eA*eG*e[5mC]*eG*e[5mC]) [compound 416945]"
  RESULT_NUMBER: 65
- SUBSTANCE: "417003 (antisense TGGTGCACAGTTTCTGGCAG; 2-13-5 gapmer, wing sugar chemistry not given here, further chemistry not given here) [compound 417003]"
  RESULT_NUMBER: 56
- SUBSTANCE: "416838 (antisense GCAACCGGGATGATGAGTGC; 5-10-5 gapmer, wing sugar chemistry not given here, further chemistry not given here) [compound 416838]"
  RESULT_NUMBER: 86
- SUBSTANCE: "416925 (antisense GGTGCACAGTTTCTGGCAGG; 3-14-3 chimeric gapmer, wing sugar chemistry not given here, further chemistry not given here) [compound 416925]"
  RESULT_NUMBER: 75
- SUBSTANCE: "416858 (antisense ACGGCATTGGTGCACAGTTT; 5-10-5 gapmer, wing sugar chemistry not given here, further chemistry not given here) [compound 416858]"
  RESULT_NUMBER: 82

Problem: Field request: percent inhibition of Factor XI mRNA, relative to untreated control cells | item: 416985 (antisense eG*e[5mC]*dA*dA*d[5mC]*d[5mC]*dG*dG*dG*dA*dT*dG*dA*dT*dG*eA*eG*eT*eG*e[5mC]) [compound 416985]
Solution: 57

Problem: Field request: percent inhibition of Factor XI mRNA, relative to untreated control cells | item: 417002 (antisense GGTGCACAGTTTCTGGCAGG; 2-13-5 gapmer, wing sugar chemistry not given here, further chemistry not given here) [compound 417002]
Solution: 70

Problem: Field request: percent inhibition of Factor XI mRNA, relative to untreated control cells | item: 416969 (antisense eG*e[5mC]*d[5mC]*d[5mC]*dT*dT*d[5mC]*dA*dT*dG*dT*d[5mC]*dT*dA*dG*eG*eT*e[5mC]*e[5mC]*eA) [compound 416969]
Solution: 76

Problem: Field request: percent inhibition of Factor XI mRNA, relative to untreated control cells | item: 416864 (antisense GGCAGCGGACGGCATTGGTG; 5-10-5 gapmer, wing sugar chemistry not given here, further chemistry not given here) [compound 416864]
Solution: 78

Problem: Field request: percent inhibition of Factor XI mRNA, relative to untreated control cells | item: 413474 (antisense eA*eG*e[5mC]*eA*eA*d[5mC]*d[5mC]*dG*dG*dG*dA*dT*dG*dA*dT*eG*eA*eG*eT*eG) [compound 413474]
Solution: 67

====

Test system: human Factor XI mRNA
Assay: Dose-dependent inhibition in HepG2 cells, lipofectin (Example 5)
Assay type: cell-based
Conditions: 37.5 nM, 16 hours
In this section, each of the substances is paired with its reported percent inhibition of human Factor XI mRNA, relative to untreated control cells.
Kindly answer with a numeric value in %, unit omitted.

Here's what some known entries look like.
- SUBSTANCE: "416826 (antisense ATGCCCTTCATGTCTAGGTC; 5-10-5 gapmer, wing sugar chemistry not given here, further chemistry not given here) [compound 416826]"
  MEASURED_ON: "human Factor XI mRNA"
  RESULT_NUMBER: 76
- SUBSTANCE: "416892 (antisense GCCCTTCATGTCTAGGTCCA; 3-14-3 chimeric gapmer, wing sugar chemistry not given here, further chemistry not given here) [compound 416892]"
  MEASURED_ON: "human Factor XI mRNA"
  RESULT_NUMBER: 84

Next substance, percent inhibition of human Factor XI mRNA, relative to untreated control cells to be filled in.
Problem: What reported percent inhibition of human Factor XI mRNA, relative to untreated control cells corresponds to 416850 (antisense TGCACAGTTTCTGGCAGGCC; 5-10-5 gapmer, wing sugar chemistry not given here, further chemistry not given here) [compound 416850] on human Factor XI mRNA?
Solution: 70

====

Assay: Cynomolgus monkeys: hematology assays (Example 29)
Format: in vivo
Settings: day 36
In the oligonucleotide strings, read from the 5' end, every base follows the letter of its sugar. An asterisk marks phosphorothioate; unmarked linkages are phosphodiester. Other units and linkages are bracketed, terminal groups are in braces. A string of capitals states the bases alone. e = 2'-O-(2-methoxyethyl) (MOE); [5mC] = 5-methylcytosine; d = 2'-deoxy (DNA)
Sorting guide: entries reporting platelet count beneath 400000 µL⁻¹ go in the 1 pile, the rest go in the 0 pile.

- SUBSTANCE: "ISIS 417002: gapmer of Table 8 (antisense eG*eG*dT*dG*d[5mC]*dA*d[5mC]*dA*dG*dT*dT*dT*d[5mC]*dT*dG*eG*e[5mC]*eA*eG*eG)"
  CAT: 0

Problem: Lab note: confirm whether the reported platelet count for this substance is below 400000 µL⁻¹, equality not counting. substance: ISIS 416850: gapmer of Table 8 (antisense eT*eG*e[5mC]*eA*e[5mC]*dA*dG*dT*dT*dT*d[5mC]*dT*dG*dG*d[5mC]*eA*eG*eG*e[5mC]*e[5mC])
Solution: 0

Problem: Lab note: confirm whether the reported platelet count for this substance is below 400000 µL⁻¹, equality not counting. substance: ISIS 416858: gapmer of Table 8 (antisense eA*e[5mC]*eG*eG*e[5mC]*dA*dT*dT*dG*dG*dT*dG*d[5mC]*dA*d[5mC]*eA*eG*eT*eT*eT)
Solution: 1

Problem: Lab note: confirm whether the reported platelet count for this substance is below 400000 µL⁻¹, equality not counting. substance: ISIS 416864: gapmer of Table 8 (antisense eG*eG*e[5mC]*eA*eG*d[5mC]*dG*dG*dA*d[5mC]*dG*dG*d[5mC]*dA*dT*eT*eG*eG*eT*eG)
Solution: 0

Problem: Lab note: confirm whether the reported platelet count for this substance is below 400000 µL⁻¹, equality not counting. substance: ISIS 416838: gapmer of Table 6 (antisense eG*e[5mC]*eA*eA*e[5mC]*d[5mC]*dG*dG*dG*dA*dT*dG*dA*dT*dG*eA*eG*eT*eG*e[5mC])
Solution: 1

====

Test: Tolerability in Sprague-Dawley rats: hematology assays (Example 23)
Format: in vivo
Design: unit not given here
Conditions: blood
METRIC: Platelets

Here's what some known entries look like.
- SEQUENCE_STRING: "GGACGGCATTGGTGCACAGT (antisense; all C 5-methyl, all phosphorothioate, sugars by position not given here; MOE gapmer, 5-10-5) [ISIS 413482, 5-10-5 MOE gapmer]"
  Platelets: 641
- SEQUENCE_STRING: "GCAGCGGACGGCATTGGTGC (antisense; all C 5-methyl, all phosphorothioate, sugars by position not given here; MOE gapmer, 5-10-5) [ISIS 412225, 5-10-5 MOE gapmer]"
  Platelets: 673
- SEQUENCE_STRING: "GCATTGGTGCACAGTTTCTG (antisense; all C 5-methyl, all phosphorothioate, sugars by position not given here; MOE gapmer, 5-10-5) [ISIS 412224, 5-10-5 MOE gapmer]"
  Platelets: 685

Problem: Field request: Platelets | item: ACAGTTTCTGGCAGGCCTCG (antisense; all C 5-methyl, all phosphorothioate, sugars by position not given here; MOE gapmer, 5-10-5) [ISIS 412223, 5-10-5 MOE gapmer]
Solution: 567

Problem: Field request: Platelets | item: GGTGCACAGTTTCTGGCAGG (all C 5-methyl, all phosphorothioate, sugars by position not given here; MOE gapmer) [ISIS 413481, 5-10-5 MOE gapmer]
Solution: 552

====

In this section, each of the substances is paired with its reported Percent inhibition of human Factor XI mRNA levels.
Test system: human Factor XI mRNA
Test: Antisense inhibition in HepG2 cells by microwalk gapmers, 8,000 nM, electroporation (Example 14)
Type: cell-based
Conditions: HepG2 cells, 8,000 nM
Experimental: These microwalk gapmers were tested in vitro. Cultured HepG2 cells at a density of 20,000 cells per well were transfected using electroporation with 8,000 nM antisense oligonucleotide. After a treatment period of approximately 24 hours, RNA was isolated from the cells and Factor XI mRNA levels were measured by quantitative real-time PCR. Factor XI mRNA levels were adjusted according to total RNA content, as measured by RIBOGREEN. […]
In the oligonucleotide strings, read from the 5' end, every base follows the letter of its sugar. An asterisk marks phosphorothioate; unmarked linkages are phosphodiester. Other units and linkages are bracketed, terminal groups are in braces. A string of capitals states the bases alone. e = 2'-O-(2-methoxyethyl) (MOE); [5mC] = 5-methylcytosine; d = 2'-deoxy (DNA)

- SUBSTANCE: "445507 (antisense eG*eA*e[5mC]*eG*eG*e[5mC]*dA*dT*dT*dG*dG*dT*dG*d[5mC]*eA*e[5mC]*eA*eG*eT*eT) [compound 445507]"
  RESULT: "85%"

Problem: Field request: Percent inhibition of human Factor XI mRNA levels | item: 445542 (antisense eT*eG*eG*e[5mC]*eA*dG*d[5mC]*dG*dG*dA*d[5mC]*dG*dG*e[5mC]*eA*eT*eT*eG) [compound 445542]
Solution: 83%

Problem: Field request: Percent inhibition of human Factor XI mRNA levels | item: 445510 (antisense eG*e[5mC]*eG*eG*eA*e[5mC]*dG*dG*d[5mC]*dA*dT*dT*dG*dG*eT*eG*e[5mC]*eA*e[5mC]*eA) [compound 445510]
Solution: 88%

Problem: Field request: Percent inhibition of human Factor XI mRNA levels | item: 416825 (antisense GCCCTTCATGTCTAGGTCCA; 5-10-5 gapmer, wing sugar chemistry not given here, further chemistry not given here) [compound 416825]
Solution: 90%

Problem: Field request: Percent inhibition of human Factor XI mRNA levels | item: 445518 (antisense eA*eG*eT*eT*eT*d[5mC]*dT*dG*dG*d[5mC]*dA*dG*dG*e[5mC]*e[5mC]*eT*e[5mC]*eG) [compound 445518]
Solution: 75%

Problem: Field request: Percent inhibition of human Factor XI mRNA levels | item: 445513 (antisense eG*e[5mC]*eA*eG*e[5mC]*eG*dG*dA*d[5mC]*dG*dG*d[5mC]*dA*dT*eT*eG*eG*eT*eG*e[5mC]) [compound 445513]
Solution: 85%

Problem: Field request: Percent inhibition of human Factor XI mRNA levels | item: 445519 (antisense e[5mC]*eA*eG*eT*eT*dT*d[5mC]*dT*dG*dG*d[5mC]*dA*dG*eG*e[5mC]*e[5mC]*eT*e[5mC]) [compound 445519]
Solution: 81%

Problem: Field request: Percent inhibition of human Factor XI mRNA levels | item: 445521 (antisense e[5mC]*eA*e[5mC]*eA*eG*dT*dT*dT*d[5mC]*dT*dG*dG*d[5mC]*eA*eG*eG*e[5mC]*e[5mC]) [compound 445521]
Solution: 87%

Problem: Field request: Percent inhibition of human Factor XI mRNA levels | item: 445538 (antisense eA*eG*e[5mC]*eG*eG*dA*d[5mC]*dG*dG*d[5mC]*dA*dT*dT*eG*eG*eT*eG*e[5mC]) [compound 445538]
Solution: 80%

Problem: Field request: Percent inhibition of human Factor XI mRNA levels | item: 445506 (antisense eA*e[5mC]*eG*eG*e[5mC]*eA*dT*dT*dG*dG*dT*dG*d[5mC]*dA*e[5mC]*eA*eG*eT*eT*eT) [compound 445506]
Solution: 86%
